- Test system: HLA-B*15:42
- Assay remarks: IEDB peptide-MHC binding, purified MHC/competitive/fluorescence; filed as Kd, often an IC50 or EC50 that approximates it; bounds were set here for any values at or beyond the usual limits of such assays
- Assay conditions: source organism: Sudan ebolavirus
Metric: Kd

Asked: Name the reported Kd value associated with the sequence CTSSIQYHR
Given back: ≥ 5 µM

###

- Test system: HLA-A*32:01
- Assay remarks: IEDB peptide-MHC binding, purified MHC/competitive/radioactivity; filed as Kd, often an IC50 or EC50 that approximates it; bounds were set here for any values at or beyond the usual limits of such assays
- Assay conditions: source organism: Dengue virus 2 Jamaica/1409/1983
Metric: pKd
Answers are plain numbers, as −log10 of the molar value.

Asked: Returns the measured pKd for the input sequence. Input: RSWPLNEAI
Given back: 7.06

###

- Test system: HLA-A*68:01
- Assay remarks: IEDB peptide-MHC binding, purified MHC/competitive/radioactivity; filed as Kd, often an IC50 or EC50 that approximates it; bounds were set here for any values at or beyond the usual limits of such assays
- Assay conditions: source organism: Vaccinia virus Copenhagen
Field: Kd. Provide a value for each of the sequences that follow.
Numbers only, in µM.

# return Kd for each item in the list
1. GLACYRFVK
2. FLTSVINRV

Given back:
0.703
9.6

###

- Test system: HLA-A*23:01
- Assay remarks: IEDB peptide-MHC binding, purified MHC/competitive/radioactivity; filed as Kd, often an IC50 or EC50 that approximates it; bounds were set here for any values at or beyond the usual limits of such assays
- Assay conditions: source organism: Mammarenavirus brazilense
Metric: pKd
Answers are plain numbers, as −log10 of the molar value.

Asked: Record VTDVTLLMA : what is its pKd with HLA-A*23:01?
Given back: 4.74

###

- Test system: HLA-B*07:02
- Assay remarks: IEDB peptide-MHC binding, purified MHC/direct/fluorescence; filed as Kd, often an IC50 or EC50 that approximates it; bounds were set here for any values at or beyond the usual limits of such assays
- Assay conditions: source organism: Homo sapiens
Metric: pKd
One number for each entry, as −log10 of the molar value.

[
  {
    "Sequence text": "VGYVDDTQF",
    "Metric": "pKd",
    "Obs value": 5.21
  }
]

Next:
Asked: Find the recorded pKd belonging to RPASAGAML and report it.
Given back: 7.47

###

- Test system: HLA-A*26:01
- Assay remarks: IEDB peptide-MHC binding, purified MHC/competitive/fluorescence; filed as Kd, often an IC50 or EC50 that approximates it; bounds were set here for any values at or beyond the usual limits of such assays
- Assay conditions: source organism: Vibrio cholerae
Metric: Kd

Asked: Notebook entry, HLA-A*26:01 assay: Kd of TRAPAPFPL = ?
Given back: ≥ 20 µM

###

- Test system: HLA-A*02:03
- Assay remarks: IEDB peptide-MHC binding, purified MHC/competitive/fluorescence; filed as Kd, often an IC50 or EC50 that approximates it; bounds were set here for any values at or beyond the usual limits of such assays
- Assay conditions: source organism: Human immunodeficiency virus type 1 BH10
Metric: Kd (nM)
Numbers only, in nM.

Asked: So what does the record say about Kd for LLQLTVWGI ?
Given back: 146

###

- Test system: HLA-A*02:02
- Assay remarks: IEDB peptide-MHC binding, purified MHC/competitive/radioactivity; filed as Kd, often an IC50 or EC50 that approximates it; bounds were set here for any values at or beyond the usual limits of such assays
- Assay conditions: source organism: Vaccinia virus Copenhagen
For each record, write down the corresponding Kd.
One number for each entry, in nM.

[
  {
    "Sequence text": "NLFDIPLLT",
    "Kd / nM": 135
  }
]

Asked: What value of measured Kd is listed for FLTSVINRV ?
Given back: 1.66

###

- Test system: HLA-A*02:06
- Assay remarks: IEDB peptide-MHC binding, purified MHC/competitive/radioactivity; filed as Kd, often an IC50 or EC50 that approximates it; bounds were set here for any values at or beyond the usual limits of such assays
- Assay conditions: source organism: Triticum aestivum
Metric: Kd (nM)
Give bare numbers, in nM.

Asked: Using the record for LQQSTYQLV , report its Kd.
Given back: 27.5

###

- Test system: HLA-B*08:01
- Assay remarks: IEDB peptide-MHC binding, purified MHC/competitive/radioactivity; filed as Kd, often an IC50 or EC50 that approximates it; bounds were set here for any values at or beyond the usual limits of such assays
- Assay conditions: source organism: Dengue virus 4 Philippines/H241/1956
Metric: pKd
Answers are plain numbers, as −log10 of the molar value.

[
  {
    "Sequence text": "MEKLRIKGM",
    "Obs value": 7.68
  }
]

Could you now consider this next sequence?
Asked: May I ask what pKd has been recorded for IMAVGLVSLL ?
Given back: 6.06

###

- Test system: HLA-B*45:06
- Assay remarks: IEDB peptide-MHC binding, purified MHC/competitive/fluorescence; filed as Kd, often an IC50 or EC50 that approximates it; bounds were set here for any values at or beyond the usual limits of such assays
- Assay conditions: source organism: human gammaherpesvirus 4
Metric: Kd

Asked: Field request: Kd | item: RRYASQTEL
Given back: ≥ 5 µM

###

- Test system: HLA-B*39:01
- Assay remarks: IEDB peptide-MHC binding, purified MHC/competitive/fluorescence; filed as Kd, often an IC50 or EC50 that approximates it; bounds were set here for any values at or beyond the usual limits of such assays
- Assay conditions: source organism: Salmonella enterica subsp. enterica serovar Typhi
Metric: Kd (nM)
One number for each entry, in nM.

Asked: Give its Kd value. Item: HEAEYNLSL
Given back: 1.9

###

- Test system: HLA-B*15:01
- Assay remarks: IEDB peptide-MHC binding, purified MHC/direct/fluorescence; filed as Kd, often an IC50 or EC50 that approximates it; bounds were set here for any values at or beyond the usual limits of such assays
- Assay conditions: source organism: Alkhumra hemorrhagic fever virus
pKd: −log10 of the molar value.
Metric: pKd

Asked: Give pKd (HLA-B*15:01) of the following sequence: WPWNAREDV
Given back: ≤ 4.70

###

- Test system: HLA-C*07:02
- Assay remarks: IEDB peptide-MHC binding, purified MHC/direct/fluorescence; filed as Kd, often an IC50 or EC50 that approximates it; bounds were set here for any values at or beyond the usual limits of such assays
- Assay conditions: source organism: Human immunodeficiency virus 1
Metric: Kd

Asked: What value of measured Kd is listed for LYNTVAVLY ?
Given back: ≥ 20 µM

###

- Test system: HLA-A*03:01
- Assay remarks: IEDB peptide-MHC binding, purified MHC/direct/fluorescence; filed as Kd, often an IC50 or EC50 that approximates it; bounds were set here for any values at or beyond the usual limits of such assays
- Assay conditions: source organism: Salmonella enterica
pKd: −log10 of the molar value.
Metric: pKd

Asked: Which pKd value is on record for EEQTDPKTL ?
Given back: ≤ 4.70

###

- Test system: HLA-A*30:02
- Assay remarks: IEDB peptide-MHC binding, purified MHC/competitive/fluorescence; filed as Kd, often an IC50 or EC50 that approximates it; bounds were set here for any values at or beyond the usual limits of such assays
- Assay conditions: source organism: Entamoeba histolytica HM-1:IMSS
pKd: −log10 of the molar value.
Metric: pKd

Asked: // pKd lookup, key: EVRKAIEFV
Given back: ≤ 5.30

###

- Test system: HLA-A*02:01
- Assay remarks: IEDB peptide-MHC binding, purified MHC/competitive/fluorescence; filed as Kd, often an IC50 or EC50 that approximates it; bounds were set here for any values at or beyond the usual limits of such assays
- Assay conditions: source organism: Zaire ebolavirus
pKd: −log10 of the molar value.
Metric: pKd

Consider the following illustrative entries.
[
  {
    "Sequence text": "RDRFKRTSF",
    "pKd": "≤ 4.70"
  },
  {
    "Sequence text": "KEGKLQCRI",
    "pKd": "≤ 4.70"
  }
]

Asked: Which pKd reading was recorded for the sequence HPLARTAKV ?
Given back: ≤ 4.70

###

- Test system: HLA-A*24:03
- Assay remarks: IEDB peptide-MHC binding, purified MHC/competitive/fluorescence; filed as Kd, often an IC50 or EC50 that approximates it; bounds were set here for any values at or beyond the usual limits of such assays
- Assay conditions: source organism: Escherichia coli str. K-12 substr. MG1655
Metric: pKd
Numbers only, as −log10 of the molar value.

Asked: Recorded pKd of AYPELACAV , please.
Given back: 6.39

###

- Test system: HLA-B*51:01
- Assay remarks: IEDB peptide-MHC binding, purified MHC/direct/fluorescence; filed as Kd, often an IC50 or EC50 that approximates it; bounds were set here for any values at or beyond the usual limits of such assays
- Assay conditions: source organism: Vibrio vulnificus YJ016
pKd: −log10 of the molar value.
Metric: pKd

Asked: Would you kindly share the measured pKd for IVAQGIAAL ?
Given back: ≤ 4.70
